system: esterase E016; assay: Initial screening of ThermoGen esterases toward esters 1-31 (pH indicator), specific activity; type: biochemical; settings: 1 mM substrate, pH 7.2, 7 vol % acetonitrile, 25° C.
test readout: Specific activity, esterase E016

### Prompt Look up Specific activity, esterase E016 for this molecule: CCCC(=O)OCC1CO1 (centres unmarked) [Substrate 30]
### Response 14 mmol ester hydrolyzed/min/mg protein

### Prompt Same thing, different molecule: CC(=O)Oc1ccccc1 [Substrate 26]
### Response 190 mmol ester hydrolyzed/min/mg protein

### Prompt Same thing, different molecule: COC(=O)C(O)c1ccccc1 (centres unmarked) [Substrate 21]
### Response <2 mmol ester hydrolyzed/min/mg protein

### Prompt Same thing, different molecule: CCOC(=O)CBr [Substrate 18]
### Response 16 mmol ester hydrolyzed/min/mg protein

### Prompt Same thing, different molecule: CCCOC(C)=O [Substrate 24]
### Response <2 mmol ester hydrolyzed/min/mg protein

### Prompt Same thing, different molecule: CCCCCCCC(=O)OCC [Substrate 15]
### Response 83 mmol ester hydrolyzed/min/mg protein

### Prompt Same thing, different molecule: CC(C(=O)Oc1ccc([N+](=O)[O-])cc1)c1ccccc1 (racemic) [Substrate 1, (±)-4-nitrophenyl-2-phenylpropanoate, reference compound]
### Response 63 mmol ester hydrolyzed/min/mg protein

### Prompt Same thing, different molecule: CCCC(=O)OCC(COC(=O)CCC)OC(=O)CCC [Substrate 29]
### Response 130 mmol ester hydrolyzed/min/mg protein

### Prompt Same thing, different molecule: CCC(C)OC(C)=O (centres unmarked) [Substrate 28]
### Response <2 mmol ester hydrolyzed/min/mg protein

### Prompt Same thing, different molecule: COC(=O)CO [Substrate 20]
### Response <2 mmol ester hydrolyzed/min/mg protein

### Prompt Same thing, different molecule: CC(C)(C)CC(=O)Oc1ccc2nc3ccc(=O)cc-3oc2c1 [Substrate 10, reference compound]
### Response 50 mmol ester hydrolyzed/min/mg protein
